Each recorded value in this set is attributed to ChEMBL document CHEMBL1201862.

- System: UACC-257
- TEST DESCRIPTION: NCI tumour cell line growth inhibition, 48 h
Active and inactive are the calls of the source. Rule as the data show it: active = GI50 up to about 1.1 µM and inactive = higher.
VALUE KIND: GI50

Previously resolved entries follow.
O=C(/N=N/c1ccccc1Cl)NNc1ccccc1Cl; > 100 µM (inactive)
COC(=O)CC(NC(=O)OCc1ccccc1)C(C(=O)OCc1ccccc1)C1(C)OCCO1 (centres undefined); 30.4 µM (inactive)
Clc1cccc2c1OCC1C(c3ccccc3)=NN(c3ccccc3)C21 (centres undefined); 67.3 µM (inactive)

Here's the next entry for you.
Record summary for O/N=C1\CC2(N3CCOCC3)CCC1(Cc1ccccc1)CC2 : reported GI50 = > 100 µM (inactive)
